Values compiled from patent US8791303B2.

Give measured pest or weed control at 250 g/ha for each item. Keep answers brief.
# Test system: Avena fatua (AVEFA)
# Experiment description: Example A glasshouse herbicide test, post-emergence, AVEFA
# Format: in vivo
# Measurement setup: Avena fatua, post-emergence, 312 h, Rate 250 g/ha, sprayed after 8 days cultivation, evaluated after 13 days, read-out: Post-Emergence Activity AVEFA (100=total damage to plant; 0=no damage to plant)
// units = %; emit number, no label

Could you tell me which pest or weed control at 250 g/ha is on file for Cc1cc(C)c(C2C(=O)CC(CC3CC(C)CCC3C(C)C)C2=O)c(C)c1 (stereo not drawn) [Compound A34] ?
10

Could you tell me which pest or weed control at 250 g/ha is on file for Cc1cc(Br)cc(C)c1C1C(=O)C/C(=C\C2CCCCC2)C1=O (stereo not drawn) [Compound A7] ?
40

Could you tell me which pest or weed control at 250 g/ha is on file for Cc1cc(C)c(C2C(=O)CC(Cc3ccc(CS(=O)(=O)c4ccccc4)cc3)C2=O)c(C)c1 (stereo not drawn) [Compound A22] ?
10

Could you tell me which pest or weed control at 250 g/ha is on file for Cc1cc(C)cc(CC2CC(OC(=O)C(C)(C)C)=C(c3c(C)cc(C)cc3C)C2=O)c1 (stereo not drawn) [Compound B16] ?
10

Could you tell me which pest or weed control at 250 g/ha is on file for Cc1cc(C)c(C2C(=O)C/C(=C\C3CCCCC3)C2=O)c(C)c1 (stereo not drawn) [Compound A1] ?
80

Could you tell me which pest or weed control at 250 g/ha is on file for Cc1cc(C)c(C2C(=O)CC(CC3CCCC4CCCCC43)C2=O)c(C)c1 (stereo not drawn) [Compound A36] ?
90

Could you tell me which pest or weed control at 250 g/ha is on file for Cc1cccc(CC2CC(OC(=O)C(C)(C)C)=C(c3c(C)cc(C)cc3C)C2=O)c1 (stereo not drawn) [Compound B13] ?
30

Could you tell me which pest or weed control at 250 g/ha is on file for Cc1cc(C)c(C2C(=O)C/C(=C\C3CC3)C2=O)c(C)c1 (stereo not drawn) [Compound A27] ?
70

Could you tell me which pest or weed control at 250 g/ha is on file for Cc1cc(C)c(C2C(=O)CC(CC3CCCCC3)C2=O)c(C)c1 (stereo not drawn) [Compound A2] ?
80

Could you tell me which pest or weed control at 250 g/ha is on file for Cc1cc(C)c(C2C(=O)CC(CC3CC3)C2=O)c(C)c1 (stereo not drawn) [Compound A28] ?
50

Could you tell me which pest or weed control at 250 g/ha is on file for Cc1cc(C)c(C2C(=O)C/C(=C\C3CCCC4CCCCC34)C2=O)c(C)c1 (stereo not drawn) [Compound A31] ?
20

Could you tell me which pest or weed control at 250 g/ha is on file for Cc1cc(C)c(C2=C(OC(=O)C(C)(C)C)CC(Cc3ccc(C#N)cc3)C2=O)c(C)c1 (stereo not drawn) [Compound B14] ?
50

Could you tell me which pest or weed control at 250 g/ha is on file for Cc1cc(C)c(C2C(=O)CC(CC3CCCCCC3)C2=O)c(C)c1 (stereo not drawn) [Compound A35] ?
20

Could you tell me which pest or weed control at 250 g/ha is on file for Cc1cc(C)cc(CC2CC(=O)C(c3c(C)cc(C)cc3C)C2=O)c1 (stereo not drawn) [Compound A21] ?
20

Could you tell me which pest or weed control at 250 g/ha is on file for Cc1cc(C)c(C2C(=O)CC(Cc3ccc(S(C)(=O)=O)cc3)C2=O)c(C)c1 (stereo not drawn) [Compound A23] ?
90

Could you tell me which pest or weed control at 250 g/ha is on file for COC1CCC(/C=C2\CC(=O)C(c3c(C)cc(C)cc3C)C2=O)CC1 (stereo not drawn) [Compound A39] ?
90

Could you tell me which pest or weed control at 250 g/ha is on file for Cc1cc(C)c(C2C(=O)CC(Cc3ccccc3C)C2=O)c(C)c1 (stereo not drawn) [Compound A15] ?
50

Could you tell me which pest or weed control at 250 g/ha is on file for Cc1cc(C)c(C2=C(OC(=O)C(C)(C)C)CC(Cc3ccccc3C)C2=O)c(C)c1 (stereo not drawn) [Compound B10] ?
30
